TEST_TARGET: r5-HT2C (Rattus norvegicus, UniProt P08909)
Sequence (P08909 33-460): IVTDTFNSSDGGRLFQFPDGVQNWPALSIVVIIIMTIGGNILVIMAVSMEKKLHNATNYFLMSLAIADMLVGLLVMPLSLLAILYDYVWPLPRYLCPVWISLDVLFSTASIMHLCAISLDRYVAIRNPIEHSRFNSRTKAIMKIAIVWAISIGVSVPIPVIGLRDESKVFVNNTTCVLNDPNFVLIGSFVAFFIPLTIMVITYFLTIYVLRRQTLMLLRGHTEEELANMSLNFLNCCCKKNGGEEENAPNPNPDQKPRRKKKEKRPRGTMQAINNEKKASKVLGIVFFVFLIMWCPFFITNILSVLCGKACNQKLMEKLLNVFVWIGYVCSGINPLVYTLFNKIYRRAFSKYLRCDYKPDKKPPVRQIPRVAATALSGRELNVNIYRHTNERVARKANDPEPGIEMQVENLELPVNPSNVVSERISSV
METHOD_DESCRIPTION: Ca2+ mobilization assay
Assay type: cell-based
CONDITION_PARAMETERS: r5-HT2C EC50, Ca2+ mobilization
Please provide measured pEC50 for the entries that follow.
Numbers only, as −log10 of the molar value.

# COMPOUND, MEASURED_ENDPOINT, TEST_VALUE
rows = [
    ("COc1ccc(CNCCc2cc(OC)c(I)cc2OC)cc1 [Compound 4b]", "pEC50", 6.88),
    ("COc1ccc2[nH]cc(CCNCc3cccc(Br)c3)c2c1 [Compound 5e]", "pEC50", 6.37),
    ("COc1ccc2[nH]cc(CCNCc3cccc(SC)c3)c2c1 [Compound 5l]", "pEC50", 6.69),
]

### Prompt Request the reported pEC50 associated with COc1ccc2[nH]cc(CCNCc3ccc(Br)cc3)c2c1 [Compound 5f]
### Response 6.69
